Entries annotated with measured ELISA Fc Control (RSU)
study_system: unrelated Fc-fused recombinant protein
experiment: ELISA, lysate on plate-bound antigen

Quick one: ELISA Fc Control (RSU) of ISOP121AR5P1C5 (designed binder, not shown: small tags and cut ends, FN3 domain; E. coli lysate in the ELISA) LPAPKNLVVSRVTEDSARLSWKRSDDEWFDSFLIQYQESEKVGEAIILTVPGSERSYDLTGLKPGTEYTVSIYGVYQRAALWFSNPLSAIFTT ?
640 RSU

Follow-up item: ISOP194GR9P1C11 (designed binder, not shown: small tags and cut ends, FN3 domain; E. coli lysate in the ELISA) LPAPKNLVVSRVTEDSARLSWTAPDAAFDSFWIFYNERWQNGEAIRLTVPGSERSYDLTGLKPGTEYWVLIGGVKGGLKSSPLWAWFTT
1040 RSU

Follow-up item: ISOP121ER5P1E7 (designed binder, not shown: small tags and cut ends, FN3 domain; E. coli lysate in the ELISA) LPAPKNLVVSRVTEDSARLSWTAPDAAFDSFTIGYTETPPRGEAIVLTVPGSERSYDLTGLKPGTKYYVSILGVKGGLGSWPLSAIFTT
480 RSU

Follow-up item: ISOP121BR5P1F10 (designed binder, not shown: small tags and cut ends, FN3 domain; E. coli lysate in the ELISA) LPAPKNLVVSRVTEDSARLSWPLNLEYFDSFLIQYQESEKVGEAIVLTVPGSERSYDLTGLKPGTEYTVSIYGVYGRYGGPFVSNPLSAIFTT
560 RSU

Follow-up item: ISOP194AR9P1C10 (designed binder, not shown: small tags and cut ends, FN3 domain; E. coli lysate in the ELISA) LPAPKNLVVSRVTEDSARPSWEWLEHFDSFLIQYQESEKVGEAIVLTVPGSERSYDLTGLKPGTEYTVSIYGVYNRKVNFYSNPLSAIFTT
38200 RSU

Follow-up item: ISOP121AR5P1A10 (designed binder, not shown: small tags and cut ends, FN3 domain; E. coli lysate in the ELISA) LPAPKNLVVSRVTEDSARLSWPDWSNSEYFDSFLIQYQESEKVGEAIVLTVPGSERSYDLTGLKPGTEYTVSIYGVYARHRLFVSNPLSAIFTT
1120 RSU

Follow-up item: ISOP121BR5P1G2 (designed binder, not shown: small tags and cut ends, FN3 domain; E. coli lysate in the ELISA) LPAPKNLVVSRVTEDSARLSWADELHHANHFDSFLIQYQESEKVGEAIVLTVPGSERSYDLTGLKPGTEYTVSIYGVYDRHYEIHFYSNPLSAIFTT
800 RSU

Follow-up item: ISOP121GR5P1A2 (designed binder, not shown: small tags and cut ends, FN3 domain; E. coli lysate in the ELISA) LPAPKNLVVSRVTEDSARLSWTAPDAAFDSFKIQYIERYIPGEAIQLNVPGSERSYDLTGLKPGTEYSVIIPGVKGGRNSFPLWAWFTT
720 RSU

Follow-up item: ISOP194AR9P1C5 (designed binder, not shown: small tags and cut ends, FN3 domain; E. coli lysate in the ELISA) LPAPKNLVVSRVTEDSARLSWLRDFNGRAFFDSFLIQYQESEKVGEAIVLTVPGSERSYDPTGLKPGTEYTVSIYGVFITWIHVRSNPLSAIFTT
3440 RSU
